TEST SYSTEM: Insulin-like growth factor 1 receptor (Homo sapiens, UniProt P08069)
Sequence (P08069 31-736 limits assumed): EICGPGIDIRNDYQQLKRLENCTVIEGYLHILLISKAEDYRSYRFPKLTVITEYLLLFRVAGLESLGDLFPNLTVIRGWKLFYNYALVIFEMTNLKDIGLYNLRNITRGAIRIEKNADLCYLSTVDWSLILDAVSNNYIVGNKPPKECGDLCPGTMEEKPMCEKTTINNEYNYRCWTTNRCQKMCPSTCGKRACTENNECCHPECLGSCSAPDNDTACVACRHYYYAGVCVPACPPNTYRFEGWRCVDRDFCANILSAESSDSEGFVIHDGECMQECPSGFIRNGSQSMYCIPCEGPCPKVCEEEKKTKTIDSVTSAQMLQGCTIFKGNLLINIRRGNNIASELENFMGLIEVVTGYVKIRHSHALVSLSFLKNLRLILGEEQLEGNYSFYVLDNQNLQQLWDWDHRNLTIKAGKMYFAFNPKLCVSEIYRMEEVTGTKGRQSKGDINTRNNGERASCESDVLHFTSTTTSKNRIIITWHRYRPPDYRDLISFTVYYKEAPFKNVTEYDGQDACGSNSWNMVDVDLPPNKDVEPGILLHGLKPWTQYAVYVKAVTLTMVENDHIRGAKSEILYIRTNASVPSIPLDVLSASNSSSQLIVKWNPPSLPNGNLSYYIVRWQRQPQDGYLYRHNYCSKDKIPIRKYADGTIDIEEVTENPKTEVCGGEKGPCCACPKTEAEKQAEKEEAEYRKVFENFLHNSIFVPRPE
Sequence (P08069 741-1367 limits assumed): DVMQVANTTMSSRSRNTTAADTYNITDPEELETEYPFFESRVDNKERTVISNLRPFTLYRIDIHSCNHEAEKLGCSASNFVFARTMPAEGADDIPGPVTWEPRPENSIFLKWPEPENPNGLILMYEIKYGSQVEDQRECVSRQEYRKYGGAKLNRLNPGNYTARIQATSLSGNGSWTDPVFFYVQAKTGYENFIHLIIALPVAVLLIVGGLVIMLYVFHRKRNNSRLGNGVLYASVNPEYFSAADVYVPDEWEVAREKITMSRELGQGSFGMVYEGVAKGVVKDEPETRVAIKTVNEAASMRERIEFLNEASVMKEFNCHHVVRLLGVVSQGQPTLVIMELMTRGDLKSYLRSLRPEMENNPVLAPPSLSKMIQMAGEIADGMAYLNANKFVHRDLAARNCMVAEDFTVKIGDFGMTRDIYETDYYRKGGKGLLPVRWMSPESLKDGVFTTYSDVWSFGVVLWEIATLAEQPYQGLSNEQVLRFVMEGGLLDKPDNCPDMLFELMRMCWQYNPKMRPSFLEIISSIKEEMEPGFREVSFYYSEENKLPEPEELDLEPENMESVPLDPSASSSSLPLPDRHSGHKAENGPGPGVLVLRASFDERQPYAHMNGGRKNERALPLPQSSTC
pIC50: −log10 of the molar value.
Recorded pIC50 for the following compounds

// solved cases for pIC50 follow
COMPOUND	pIC50
COc1cc(Nc2nccc(Nc3cc4ccccc4nc3C#N)n2)cnc1O[C@H]1C[C@@H](N(C)C)C1 [US20250171431, Compound 269]	< 5.00
COc1cc(Nc2nccc(Nc3cnc4cc(Cl)ccc4c3)n2)ccc1OCCCN1CCCCC1 [US20250171431, Compound 428]	> 6.30

Now look at this entry.
Query: pIC50; subject: COc1cc(Nc2nccc(Nc3cc4cc(Cl)ccc4[nH]c3=O)n2)ccc1O[C@H]1CC[C@@H](N(C)C)CC1 [US20250171431, Compound 247] > 6.30
